Molecular target: NDM-1 (Klebsiella pneumoniae, UniProt C7C422)
Construct: made in house
Sequence (C7C422 29-270, looked up, species assumed): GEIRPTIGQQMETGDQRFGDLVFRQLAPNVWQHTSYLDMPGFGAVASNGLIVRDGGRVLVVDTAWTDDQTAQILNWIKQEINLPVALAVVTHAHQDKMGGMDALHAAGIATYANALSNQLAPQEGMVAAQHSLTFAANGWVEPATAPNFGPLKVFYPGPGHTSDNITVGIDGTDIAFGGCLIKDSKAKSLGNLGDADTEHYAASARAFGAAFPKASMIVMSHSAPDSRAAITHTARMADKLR
Assay: NDM-1 inhibition, fluorogenic cephalosporin (FC5) hydrolysis
Assay type: biochemical
Conditions: enethiols 6 assayed as sodium salts; 10 min incubation; read-out: IC50 NDM-1
pIC50: −log10 of the molar value.
Rule: pIC50 of 5 or more gives t; anything lower gives f.

Ask | Assess whether reported pIC50 for O=C(O)/C(S)=C/c1ccccc1Cl sits at 5 or higher.
Reply | t

Ask | What about this molecule? COc1ccc(/C=C2\SC(=S)N(CC(=O)O)C2=O)cc1
Reply | f

Ask | Would you kindly repeat that for O=C(O)CN1C(=O)/C(=C/c2ccccc2F)SC1=S ?
Reply | f

Ask | Queued: Cc1ccc(/C=C2\SC(=S)N(CC(=O)NN3CCN(C)CC3)C2=O)cc1
Reply | f

Ask | Same again, this time with CN1CCN(NC(=O)CN2C(=O)/C(=C/c3csc4ccccc34)SC2=S)CC1
Reply | f

Ask | Param item: CN1CCN(NC(=O)CN2C(=O)/C(=C/c3ccccc3F)SC2=S)CC1
Reply | f

Ask | And for Cc1cccc(C)c1/C=C1\SC(=S)N(CC(=O)NN2CCN(C)CC2)C1=O ?
Reply | f

Ask | Entry to check: O=C(O)CN1C(=O)/C(=C/c2ccccc2I)SC1=S
Reply | f

Ask | Same read-out for Cc1ccc(/C=C(\S)C(=O)O)cc1 ?
Reply | t

Ask | And what about the molecule O=C(O)CN1C(=O)/C(=C/c2c(F)cccc2F)SC1=S ?
Reply | f

Ask | And the next one, CN1CCN(NC(=O)CN2C(=O)/C(=C/c3c(F)cccc3Cl)SC2=S)CC1 ?
Reply | f

Ask | Request: Cc1cccc(C)c1/C=C1\SC(=S)N(CC(=O)O)C1=O
Reply | f

Ask | Entry O=C(O)CN1C(=O)/C(=C/c2c(F)cccc2Cl)SC1=S please
Reply | f

Ask | Input CN1CCN(NC(=O)CN2C(=O)/C(=C/c3c(Cl)cccc3Cl)SC2=S)CC1
Reply | f

Ask | Another molecule: CN1CCN(NC(=O)CN2C(=O)/C(=C/c3c(F)cccc3F)SC2=S)CC1
Reply | f

Ask | Also, O=C(O)/C(S)=C/c1c(Cl)cccc1Cl please.
Reply | t

Ask | Then this molecule: O=C(O)/C(S)=C/c1c(F)ccc(F)c1F
Reply | t

Ask | Try this molecule too: O=C(O)CN1C(=O)/C(=C/c2ccc(Br)cc2)SC1=S
Reply | f

Ask | O=C(O)/C(S)=C/c1cc(Cl)ccc1Cl , same question.
Reply | f
